B1: TPR t1 (parent)
chain: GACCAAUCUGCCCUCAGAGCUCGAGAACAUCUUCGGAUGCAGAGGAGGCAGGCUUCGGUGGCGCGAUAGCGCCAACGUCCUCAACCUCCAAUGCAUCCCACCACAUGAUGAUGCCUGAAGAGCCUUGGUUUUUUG

variants of: B1; assay: polymerase ribozyme fitness, log enrichment relative to wild type (log ratio); higher = more active; in vitro selection for triplet polymerase activity
Hi, to clarify the labels: Yes covers polymerase ribozyme fitness (log ratio) from -4 upward, No covers anything below -4.

Worked examples, 5 variants total:
## Task hey, is polymerase ribozyme fitness (log ratio) for this one >= -4? GACCAAUCUGCCCUCAGAGCUCGAGAACAUCUUCGGAUGCAGAGGAGGCAGGCUUCGGUGGCGCGAUAACGCCAACGUCCUCAACCUCCAAUGCAUCCCACCACAUGAUGAUGCCCGAAGAGCCUUGGUUUUUUG [G69A U116C]
## Result Yes

## Task hey, is polymerase ribozyme fitness (log ratio) for this one >= -4? GACCAAUCUGCCCUCAGAGCUCGAGAACAUCUUCGGAUUCAGAGGAGGCAGGCUUCGGUGGCGCGAUAGCGCCAACGUCCUCAACCUCCAAUGUAUCCCACCACAUGAUGAUCCCUGCAGAGCCUUGGUUUUUUG [G39U C94U G113C A118C]
## Result Yes

## Task hey, is polymerase ribozyme fitness (log ratio) for this one >= -4? GACCAAUCUGGCCUUAGAGCUCGAGAACAUCUUCGGAUGCAGAGAAGGCAGGCUUCGGUGGCGCGAUAGCGCAAACGUCCUCUACCUCCAAUGCAUCCCACCACAUGAUGAUGCCUGAAGAGCCUUGGUUUUUUG [C11G C15U G45A C73A A83U]
## Result Yes

## Task hey, is polymerase ribozyme fitness (log ratio) for this one >= -4? GACCAAUCUGCCCUCAGAGCCCGAGAACAUCUUCGGAUGCAGAGGAGGCAGGCUUCGGUGGCGCGAUAGCGCCAACAUCCUCAACCUUCAAUGCAUCCCACCACACGAUAAUGCCUGAAGAGCCUUGGUUUUUUG [U21C G77A C88U U106C G110A]
## Result No

## Task hey, is polymerase ribozyme fitness (log ratio) for this one >= -4? GACCAAUCUGACCUCAGAGCGCGAGAACAUCUUCGGAUGCAGAGGAGGCAGGCUUCGGUGGCGCGAUAGCGCCAACGUCCUCAACCUCCAAUGCAUCCCACCACAUGAUGAUGCCUGAAUAGACUUGGUUUUUUG [C11A U21G G120U C123A]
## Result Yes

New cases:
## Task hey, is polymerase ribozyme fitness (log ratio) for this one >= -4? GACCAAUCUGCCCUCAGAGCUCGAGAACAUCUUCGGAUGCUGAGGAGGCAGGCUUUGGUGGCGCGAUAGCGCCAACGGCCUCAACCUCCAAUGCAUCCCACCACAUGAUGAUGCCUGAAGAGCCUUGGUUUUUUG [A41U C56U U78G]
## Result Yes

## Task hey, is polymerase ribozyme fitness (log ratio) for this one >= -4? GACCAAUCUGCCCUAAGAGCUCGAGAACAUCUUCGGAUGCAGAGGAGGCAGGCUUUGGUGGCGCGAUAGCGCCAACGUCCUCAACCUCCAAUGCAUCCCACCACAUGAUGAUGCCUGAAGAGCCUUGGUUUUUUG [C15A C56U]
## Result Yes

## Task hey, is polymerase ribozyme fitness (log ratio) for this one >= -4? GACCAAUCUGCCCUCAGAGCUCGAGAACAUCUUCGGAUGCAGAGGAGGCAGCCUUCGGUGGCGCGAUAGCGACAACGUCCUCAACCUCCAAUGCAUCCCACCAUAUGAUGAUGCGCGAAGAGCCUGGGUUUUUUG [G52C C72A C104U C115G U116C U126G]
## Result No

## Task hey, is polymerase ribozyme fitness (log ratio) for this one >= -4? GACCAAUCUGCCCUCAGAGCUCGAGAACAUGUUCGGAUGCAGAGGAGGCAGGAUUCGGUAGCGCGAUAGCGCCAACGUCCUCAACCUCCAAUGUAUCCCACCACAAGAUGAUGCCUGAAGAGCCUUGGUUUUUUG [C31G C53A G60A C94U U106A]
## Result No

Source: the RNAGym collection of RNA variant scans (doi:10.1073/pnas.2313332121)
